For each of the binders below, state its kon.
# target_desc: T1, AFP158/HLA-A*02:01 complex (human)
# T1 construct: flowed as analyte in SPR
# assay_remarks: SPR, crude scFv captured, pMHC analyte;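 further: complex injected at several concentrations over the chip, association phase then running buffer for dissociation, KD derived from on- and off-rates computed from both curves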
Answer format reminder: number followed by unit.

• AS170036 VL1VH1-57H98F108D (scFv, also called 59-AS170036 VL1VH1-57H98F108D) scFv: QSALTQPRSVSGSPGQSVTISCAGTSSDVGSENYVSWYQQHPGKAPKLMIYQVNKRASGVPDRFSGSKSGNTASLTISGLQAEDEADYYCASYRSSDFNIVFGGGTKLTVLGGGGSGGGGSGGGGSEVQLVESGGGLVQPGGSLRLSCAASGFTFSSYAMSWVRQAPGKGLEWVSTINSGTGHPYYADSVKGRFTISRDNSKNTLYLQMNSLRAEDTAVYYCAKNFFDGSWFLDPPAMDYWGQGTLVTVSSHHHHHH = 290000 M⁻¹ s⁻¹

Kindly consider the entry below.
Q. Bench note: what kon did AS170036 VL1VH1-56N98I108D (scFv, also called 53-AS170036 VL1VH1-56N98I108D) scFv: QSALTQPRSVSGSPGQSVTISCAGTSSDVGSENYVSWYQQHPGKAPKLMIYQVNKRASGVPDRFSGSKSGNTASLTISGLQAEDEADYYCASYRSSDINIVFGGGTKLTVLGGGGSGGGGSGGGGSEVQLVESGGGLVQPGGSLRLSCAASGFTFSSYAMSWVRQAPGKGLEWVSTINSGTNSPYYADSVKGRFTISRDNSKNTLYLQMNSLRAEDTAVYYCAKNFFDGSWFLDPPAMDYWGQGTLVTVSSHHHHHH show?
A. 280000 M⁻¹ s⁻¹
